# Lookup of reported TGI keyed by entry
# Tested on: CAKI-1 renal
# Assay Remarks: NCI tumour cell line growth inhibition, 48 h

Solved cases below.
molecule=CSc1nc(=O)n(CCC#N)nc1SC endpoint_value="> 100 µM"
molecule=NC(N)=NCCN1CC2CCC(CC2)C1 endpoint_value="> 100 µM"
molecule=NC(N)=NS(=O)(=O)c1ccc(NNc2c3ccccc3nc3c(C(=O)Nc4ccc(S(=O)(=O)Nc5ncccn5)cc4)cccc23)cc1 endpoint_value="> 100 µM"
molecule="CC1(C)COC(C2(C)C(=O)C=C(c3ccccc3)c3ccccc32)=N1 (stereo unspecified)" endpoint_value="> 100 µM"

Below: the item to evaluate.
# TGI of O=C(/C=C/c1ccccc1)CCC1C(=O)c2ccccc2C1=O = > 100 µM

These measurements were taken from PubChem BioAssay (NCI).
